B1: tRNA (parent)
chain: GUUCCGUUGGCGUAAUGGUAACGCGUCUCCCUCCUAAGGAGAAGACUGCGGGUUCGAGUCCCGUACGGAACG

Variants of: B1
method-summary: yeast fitness, log relative to wild type (ln ratio); higher = fitter; tRNA-Arg(CCU), competitive growth, 37 C, 1 M NaCl

residue-sequence	yeast fitness (ln)
GUUCCUUUGGCGUAAUGGUAACGCGUCUCCCUCCUAAGGAGACGACUGCGGGUUCGAGUCCCGUACGGGACG [G6U A43C A69G]	-0.328
GCUCCAUUGGCGUAAUGGUAACGCGUCUCCCUCCUAAGGAGAAGACUGCGGGUUCGAGUCCCGUAUGGGGUG [U2C G6A C66U A69G A70G C71U]	-0.0248
GCUCCUUUGGCGUAAUGGUAACGCGUCUCCCUCCUAAGGAGAAGAUUGCGGGUUCGAGUCCCGUACGGGGCG [U2C G6U C46U A69G A70G]	-0.0922
GUUCCAUUGGCGUAAUGGUAACGCGUCUCCCUCCUAAGGAGACGAUUGCGGGUUCGAGUCCCGUACGGAACG [G6A A43C C46U]	-0.143
GCUCCGUUGGCGUAAUGGUAACGCGUCUCCCUCCUAAGGAGACGAUUGCGGGUUCGAGUCCCGUACGGGUUG [U2C A43C C46U A69G A70U C71U]	-0.307
AGUCCUUUGGCGUAAUGGUAACGCGUCUCCCUCCUAAGGAGAAGACUGCGGGUUCGAGUCCCGUACGGAUCG [G1A U2G G6U A70U]	-0.166
AGUCCUUUGGCGUAAUGGUAACGCGUCUCCCUCCUAAGGAGAAGACUGCGGGUUCGAGUCCCGUAUGGAGCG [G1A U2G G6U C66U A70G]	-0.199
AUUCCUUUGGCGUAAUGGUAACGCGUCUCCCUCCUAAGGAGAAGACUGCGGGUUCGAGUCCCGUACGGGGUG [G1A G6U A69G A70G C71U]	-0.247
AGUCCUUUGGCGUAAUGGUAACGCGUCUCCCUCCUAAGGAGACGACUGCGGGUUCGAGUCCCGUAUGGAUCG [G1A U2G G6U A43C C66U A70U]	-0.284
AGUCCGUUGGCGUAAUGGUAACGCGUCUCCCUCCUAAGGAGACGACUGCGGGUUCGAGUCCCGUAUGGAUUG [G1A U2G A43C C66U A70U C71U]	-0.333
GCUCCUUUGGCGUAAUGGUAACGCGUUUCCCUCCUAAGGAGAAGACUGCGGGUUCGAGUCCCGUAUGGAUUG [U2C G6U C27U C66U A70U C71U]	-0.35

Origin of the recorded values: the RNAGym collection of RNA variant scans (doi:10.1038/s41586-018-0170-7)
